Item-by-item account of melting point

MOLECULAR STRING	melting point
CCC(C#N)(C#N)Cc1ccc(Cl)cc1	70.9 °C
C=CCC(C#N)(C#N)Cc1c(F)c(F)c(F)c(F)c1F	78.2 °C
C=CCC(C#N)(C#N)Cc1ccc(C#N)cc1	81.9 °C
C=CCC(C#N)(C#N)Cc1ccc([N+](=O)[O-])cc1	94.2 °C
C=CCC(C#N)(C#N)Cc1ccc(C)cc1	74.5 °C
CC/C=C\CCC(C#N)(C#N)Cc1ccc(Cl)cc1	44.8 °C
